Where these numbers come from: patent US20230265187A1

Measured max. signal (% of 22G2) of individual entries
# Study System: T1, human TIGIT on Jurkat cells (TIGIT/NFAT reporter Jurkat cells, BPS Bioscience #60538); Promega TIGIT Effector … (human, UniProt Q495A1 22-244)
# T1 sequence (looked up): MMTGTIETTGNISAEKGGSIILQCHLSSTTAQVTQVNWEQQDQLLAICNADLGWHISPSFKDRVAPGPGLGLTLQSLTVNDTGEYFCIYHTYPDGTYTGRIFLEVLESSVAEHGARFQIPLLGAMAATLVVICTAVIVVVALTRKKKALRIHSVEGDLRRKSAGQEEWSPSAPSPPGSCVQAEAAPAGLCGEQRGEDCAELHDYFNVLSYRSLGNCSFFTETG
# Method Description: cell-based or functional assay

>>> result("43586p1.2.C9 (scFv, V domains shown) VH: EVQLLESGGGLVQPGGSLRLSCAASGFTFDDYVMSWVRQAPGKGLEWVSLINWNGDKTYYADSVKGRFTISRDNSKNTLYLQMNSLRAEDTAIYYCAKHWIVFQYGMDVWGQGTTVTVSS VL: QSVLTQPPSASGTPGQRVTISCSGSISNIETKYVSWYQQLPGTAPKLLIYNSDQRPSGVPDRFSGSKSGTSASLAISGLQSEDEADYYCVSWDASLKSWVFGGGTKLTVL")
"126 % of 22G2"

Memo: 43586p1.2.F9 (scFv, V domains shown) VH: EVQLLESGGGLVQPGGSLRLSCAASGFTFDDYVMSWVRQAPGKGLEWVSLINWNGDKTYYADSVKGRFTISRDNSKNTLYLQMNSLRAEDTAIYYCAKHWIVFQYGMDVWGRGTTVTVSS VL: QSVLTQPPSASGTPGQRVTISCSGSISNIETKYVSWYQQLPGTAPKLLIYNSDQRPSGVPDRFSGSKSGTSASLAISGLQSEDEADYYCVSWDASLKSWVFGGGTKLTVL , reported max. signal (% of 22G2): 127 % of 22G2
